# experiment.summary: qHTS for Stage-Specific Inhibitors of Vaccinia Orthopoxvirus: mCherry Reporter Primary qHTS; note: nearly all actives have a fitted effect of over 35% in size
# run.conditions: Vaccinia virus mCherry reporter infection, fluorescence; series mostly up to 36.5 µM
About 1,900 (0.61%) of roughly 310,000 compounds were called active. Roughly 8% stayed inconclusive and do not appear here. Calls come from the whole dose curve; tested in A549 cells. Many of the other results were omitted from the sample, so actives are more common in it than they were.
Respond using exactly one of the listed classes: true (active), false (inactive)

Query block: Status in this test for "CN(C(=O)c1cccc(NC(=O)Cc2ccc(NC(=O)C3CCN(C(=O)C4CCCCC4)CC3)cc2)c1)C1CCC1" ?
Result block: false

Query block: Please state the recorded outcome for this compound: "COc1ccc(-c2cc3nc(NCCOc4ccccc4)ccn3n2)cc1"
Result block: false

Query block: Hey, what did the test say about "CCc1nc2ccc(C(=O)NC3CCN(Cc4ccccc4)CC3)cn2c1N(CC)CCOC" ?
Result block: false

Query block: Which outcome did this test record for the compound CCCCN(C(C)=O)c1ccc2c(c1)C1CC2CCN1Cc1ccccc1 (stereo not given) ?
Result block: false

Query block: What did this assay record as the result for "CCCOc1ccc(F)cc1-c1cc(C(=O)NCc2ccc(F)cc2)[nH]n1" ?
Result block: false

Query block: Name the outcome recorded for COCC1CCCCN1C(=O)c1cc(COc2ccc(C)c(C)c2)on1 (stereo not given) in the assay.
Result block: false

Query block: Identify the outcome logged in this assay for the compound shown: COc1ccc(CC2c3cc(OC)c(OC)cc3CC[N+]2(C)CCC(=O)OCCCCCOC(=O)CC[N+]2(C)CCc3cc(OC)c(OC)cc3C2Cc2ccc(OC)c(OC)c2)cc1OC (stereo not given)
Result block: true

Query block: GET /call?item= "CCc1cc2c(N3CCN(c4nnc(CC)s4)CC3)ncnc2s1" returns the recorded outcome of this test.
Result block: true

Query block: Tell me the assay call for "CC(C)Nc1nc(NCCOc2ccccc2Cl)c2sccc2n1" please.
Result block: false

Query block: Hi, sorry to bother you, what did the test record for COc1cccc(C(O)c2nc(-c3ccc(C)c(C)c3)cs2)c1 (stereo not given) ?
Result block: false

Query block: Please share the test call associated with "COc1ccc(CN2CCOC2=O)cc1OC" .
Result block: false

Query block: What is the recorded call for this compound in the test? "C(=Nc1ccc(/C=C/c2ccnc3ccccc23)cc1)c1cc2c3c(c1)CCCN3CCC2"
Result block: false

Query block: Test call for this compound, please: "CCOC(=O)[C@]12CCCC=C1N(Cc1cccc3ccccc13)C(=O)[C@H](CC(=O)NCC13CC4CC(CC(C4)C1)C3)C2"
Result block: false

Query block: Kindly provide the recorded test outcome for the following compound: "CCN(CC)S(=O)(=O)c1ccc(N2CCCC2)c(NC(=O)c2ccc([N+](=O)[O-])o2)c1"
Result block: true

Query block: What classification did "CCN(CC)S(=O)(=O)c1ccc(N2CCN(C)CC2)c(NC(=O)Nc2ccccc2F)c1" end up with in this test?
Result block: false

Query block: Assay result, entry "COc1cc2nc(N3CCCN(C)CC3)nc(NC(C)C)c2cc1OC" — outcome?
Result block: false

Query block: Outcome? "Cc1ncc(CO)c(/C=N/NC(=O)c2cccc(S(=O)(=O)N3CCCC3)c2)c1O"
Result block: false

Query block: Entry CN(C(=O)c1cccc(NC(=O)Cc2cccc(NC(=O)C3CCCN(C(=O)C4CC4)C3)c2)c1)C1CCC1 (stereo not given) : call = ?
Result block: false

Query block: What did this assay record as the result for "NC(=O)Nc1ccc(/C=C/c2ccnc3ccccc23)cc1" ?
Result block: false

Query block: For "COC(=O)C1=CN(Cc2ccc(OC)c(OC)c2)C=C(C(=O)OC)C1c1cccs1" , which call appears in the assay record?
Result block: false
